Value source: PubChem BioAssay (NCI)

System: A549/ATCC NSCLC
PROCEDURE DETAILS: NCI-60 one-dose screen, 48 h (100 = growth as untreated, 0 = no growth, -100 = all killed)
ASSAY CONDITIONS: 10 µM unless noted
The panel holds about 83,000 compounds, 20% with a hit somewhere; the sample as a whole holds those more often.
Category scheme (growth): bottom range (below 20%), center range (20% to below 90%), top range (90% or more)

{"COMPOUND": "CC(C)OP(=O)(CCC(=O)c1c[nH]c2ccccc12)OC(C)C", "LABEL VALUE": "center range"}
{"COMPOUND": "O=C(Nc1ccc(C2=NCCCN2)cc1)c1ccc(C(=O)Nc2ccc(C3=NCCCN3)cc2)nc1", "LABEL VALUE": "top range"}
{"COMPOUND": "COC(=O)[C@@H](C)CNS(=O)(=O)N(c1cc(C(F)(F)F)cc(C(F)(F)F)c1)C1CCN(Cc2ccc(F)cc2)CC1", "LABEL VALUE": "center range"}
{"COMPOUND": "c1ccc2c(c1)CCN(NCCN1CCCC1)C2", "LABEL VALUE": "center range"}
{"COMPOUND": "CNC(=O)c1ccc(Nc2ncc(C(F)(F)F)c(NCc3nccnc3N(C)S(C)(=O)=O)n2)cc1", "LABEL VALUE": "bottom range"}

Categorize the following entry: O=C1C=CC2(NN=C(c3ccccc3)N2c2ccc(Cl)cc2)c2cccc(O)c21 (centres undefined)
center range

Categorize the following entry: `N#Cc1c(NC(=O)c2cccs2)[n+]([O-])c2ccc(F)cc2[n+]1[O-]`
top range

Categorize the following entry: N#Cc1c(-c2ccc(C(F)(F)F)cc2)c(F)c(NCCC2CCC(O)C2)n2c1nc1ccccc12 (centres undefined)
center range

Categorize the following entry: `N#CCNC(=O)c1ccc(-c2ccnc(Nc3ccc(N4CCOCC4)cc3)n2)cc1`
bottom range

---

Tested on: NCI-H23 lung
PROCEDURE DETAILS: NCI-60 one-dose screen, 48 h
ASSAY CONDITIONS: 10 µM unless noted
This is part of a sample that, as a whole, favours compounds with a hit. Of some 83,000 tested, about 20% had one in any assay. The source made the active and inactive calls. How the source made its calls: active means growth percent below 10; inactive means the rest.
Give your call using only these classes: yes = active, no = inactive

These recorded examples may help you get a feel for the data.
{"CHEMICAL STRUCTURE": "COc1ccc(C(=O)c2cc(OC)c(OC)c(OC)c2)cc1/C=C/C(=O)c1ccc(F)cc1", "LABEL VALUE": "no"}
{"CHEMICAL STRUCTURE": "Cc1cc2c(-c3nc4ccccn4c3NC3CCCCC3)c(O)c(O)cc2c(O)c1-c1c(C)cc2c(-c3nc4ccccn4c3NC3CCCCC3)c(O)c(O)cc2c1O", "LABEL VALUE": "no"}
{"CHEMICAL STRUCTURE": "CN1CCN(c2ccc(OC(F)(F)F)c(Nc3ncc4c(n3)-c3c(c(C(N)=O)nn3CCO)CC4)c2)CC1", "LABEL VALUE": "no"}
{"CHEMICAL STRUCTURE": "Cc1cc2c(-c3nc4ccccn4c3NC34CC5CC(CC(C5)C3)C4)c(O)c(O)cc2c(O)c1-c1c(C)cc2c(-c3nc4ccccn4c3NC34CC5CC(CC(C5)C3)C4)c(O)c(O)cc2c1O", "LABEL VALUE": "yes"}
{"CHEMICAL STRUCTURE": "O=C(NO)c1ccc(Cn2c(=O)n(-c3ccccc3F)c(=O)c3ccccc32)cc1", "LABEL VALUE": "yes"}

From here, focus on the item given below.
Short answer needed: outcome of this test for `COc1cccc(NC(=O)Nc2ccc(Nc3ncnc4sc5c(c34)CCN(C(=O)CCl)C5)cc2)c1` ?
no

---

Quick reference for growth among some compounds
System: RPMI-8226 leukemia
PROCEDURE DETAILS: NCI-60 one-dose screen, 48 h (100 = growth as untreated, 0 = no growth, -100 = all killed)
ASSAY CONDITIONS: 10 µM unless noted
About 83,000 compounds went through this panel and 20% of them were active in at least one assay; those are over-represented in the sample as a whole.
Provide only the numeric value, understood in %.

{"COMPOUND": "Cn1ncc(Cl)c1-c1cc(C(=O)N[C@H](CN)Cc2ccc(F)c(F)c2)oc1Cl", "growth / %": -5.77}

Lab note: next compound to report on.
Lookup result for `CCCCCc1ccc(C)cc1OC(=O)CCl` ; measured growth: 98.5

---

Quick reference for growth among some compounds
Tested on: HCT-15 colon
PROCEDURE DETAILS: NCI-60 one-dose screen, 48 h (100 = growth as untreated, 0 = no growth, -100 = all killed)
ASSAY CONDITIONS: 10 µM unless noted
This is part of a sample that, as a whole, favours compounds with a hit. Of some 83,000 tested, about 20% had one in any assay.
Provide only the numeric value, understood in %.

Here is how some compounds turned out for growth.
{"COMPOUND": "O=C1C=CC2(NN=C(c3ccccc3)N2c2cccc(Cl)c2)C(Cl)=C1 (configuration not stated)", "growth [%]": 79.6}
{"COMPOUND": "Cn1cc(-c2[nH]c3cc(NC(=O)[C@H](N)C4CCCCC4)cc4c3c2C=NNC4=O)cn1", "growth [%]": 20.1}
{"COMPOUND": "OCCNC(=S)Nc1ccc(-c2nc(N3C[C@H]4CC[C@@H](C3)O4)c3cccn3n2)cc1", "growth [%]": 13}
{"COMPOUND": "CO[C@H]1C[C@@H]2CC[C@@H](C)[C@@](O)(O2)C(=O)C(=O)N2CCCC[C@H]2C(=O)O[C@H]([C@H](C)C[C@@H]2CC[C@@H](OCCO)[C@H](OC)C2)CC(=O)[C@H](C)/C=C(\\C)[C@@H](O)[C@H](OC)C(=O)[C@H](C)C[C@H](C)\\C=C/C=C/C=C/1C", "growth [%]": 53.9}
{"COMPOUND": "Nc1c2c(c(O)c3c1=C(CO)C=N3)=NCCS2=O (configuration not stated)", "growth [%]": 4.65}
{"COMPOUND": "CC(C)[C@@H]1CC[C@]2(CO2)[C@@H]2C(=O)OCC(C(=O)O)=C[C@H]21", "growth [%]": 0.806}
{"COMPOUND": "CC(=O)OC1Oc2ccccc2-c2oc(=O)c(-c3cc4ccc(N(C)C)cc4oc3=O)cc21 (configuration not stated)", "growth [%]": 46.2}
{"COMPOUND": "COc1ncc(-c2ccc3nccc(-c4ccnnc4)c3c2)cc1NS(=O)(=O)c1ccc(F)cc1F", "growth [%]": -15}

Lookup result for `CN1CC[C@H](c2c(O)cc(O)c3c(=O)cc(-c4ccccc4Cl)oc23)[C@H](O)C1` ; measured growth: 4.15

Lookup result for `CNC(=O)c1ccccc1Nc1nc(Nc2ccc3c(c2OC)CCC[C@H](N2CCN(CCO)CC2)C3)ncc1Cl` ; measured growth: 0.498

Lookup result for `[2H]C1([2H])[C@H](C)O[C@H](C)C([2H])([2H])N1c1ccc(NC(=O)c2cccc(-c3ccc(OC(F)(F)F)cc3)c2C)cn1` ; measured growth: 84.2

---

Test system: HOP-62 NSCLC
PROCEDURE DETAILS: NCI-60 one-dose screen, 48 h (100 = growth as untreated, 0 = no growth, -100 = all killed)
ASSAY CONDITIONS: 10 µM unless noted
This is part of a sample that, as a whole, favours compounds with a hit. Of some 83,000 tested, about 20% had one in any assay.
Hi! Could you tag entries with growth below 20% as Criterion met, and those at or above as Criterion not met? Much appreciated.

These recorded examples may help you get a feel for the data.
{"MOLECULE": "Cc1cc(Nc2ncnc3ccc(NC4=NC(C)(C)CO4)cc23)ccc1Oc1ccn2ncnc2c1", "TEST TARGET": "HOP-62 NSCLC", "LABEL VALUE": "Criterion not met"}
{"MOLECULE": "COc1cc2c(cc1OCCCN1Cc3ccc(OCCCCC(=O)N4CCC(CCN5CCCC5)CC4)cc3C1)N=C(N)C21CCCC1", "TEST TARGET": "HOP-62 NSCLC", "LABEL VALUE": "Criterion not met"}
{"MOLECULE": "N#CC1(C#N)C(c2cccs2)NC(c2cccs2)C1(C#N)C#N (centres undefined)", "TEST TARGET": "HOP-62 NSCLC", "LABEL VALUE": "Criterion not met"}
{"MOLECULE": "O=C(Nc1ccc(C2=NCCCN2)cc1)c1ccc(C(=O)Nc2ccc(C3=NCCCN3)cc2)nc1", "TEST TARGET": "HOP-62 NSCLC", "LABEL VALUE": "Criterion not met"}
{"MOLECULE": "COc1ccc(C(=O)c2cc(OC)c(OC)c(OC)c2)cc1/C=C/C(=O)c1ccc(F)cc1", "TEST TARGET": "HOP-62 NSCLC", "LABEL VALUE": "Criterion not met"}

Below 20% on growth? Entry `CN1CCN(CCCOc2cccc3nc(Nc4ccc(Cl)c(C(F)(F)F)c4)ccc23)CC1`
Criterion met

Below 20% on growth? Entry `C=CC(=O)Nc1cc2c(Nc3ccc(F)c(Cl)c3)ncnc2cc1OCCCN1CCOCC1`
Criterion met

Below 20% on growth? Entry COC(=O)CC[C@@H](C)[C@H]1CC[C@H]2C3CC[C@@H]4C[C@@H]5CC[C@]4(C)[C@@]3(O5)[C@H](Br)[C@@H](Br)[C@]12C (some centres undefined)
Criterion not met

Below 20% on growth? Entry `C=CC(=O)Nc1cc(Nc2nccc(-c3cn(C)c4ccccc34)n2)c(OC)cc1N(C)CCN(C)C`
Criterion met

Below 20% on growth? Entry `C[C@@H](Oc1cc(C(=O)Nc2ccc(C(=O)N3CCN(C)CC3)cc2)nnc1N)c1c(Cl)ccc(F)c1Cl`
Criterion not met
